B1: Twister Ribozyme (parent)
chain: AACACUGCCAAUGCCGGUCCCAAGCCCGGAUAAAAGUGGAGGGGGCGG

variants of: B1; assay: self-cleavage, relative activity (ratio to wild type); higher = more cleavage; co-transcriptional
Recorded self-cleavage values for a group of variants are listed next.
Please give the numeric answer without any surrounding text.

Study these solved cases before continuing.
G13U C21A; 0.0794
G16C G36A; 0.188

Prompt line: Answer with the recorded self-cleavage of A23U C46U only.
Response line: 0.731

Prompt line: Please give the documented self-cleavage of G17A G42U
Response line: 0.135
